pKd reference
biological target: T1, COVID-19 nucleocapsid protein (N-protein) (severe acute respiratory syndrome …, UniProt P0DTC9 1-419); experiment: bio-layer interferometry (BLI)
T1 construct: also called nucleocapsid protein (N-protein) of severe acute respiratory syndrome coronavirus 2 (SARS-CoV-2)
pKd field: float, defined as -log10 of concentration (mol/L).

ACTNLEWADCYINHNCA (Ci, Cii and Ciii cysteines covalently bound to TATA scaffold) [BCY19572] ... 6.00
ACDGNFCDNRYVTQRCA (Ci, Cii and Ciii cysteines covalently bound to TBMT scaffold) [BCY17635] ... 4.39
ACNAWFCDGRFYMCA (Ci, Cii and Ciii cysteines covalently bound to TBCU scaffold) [BCY16569] ... 5.37

Ask | // pKd lookup, key: ACDGNFCDNRYVVNRCA (Ci, Cii and Ciii cysteines covalently bound to TBMT scaffold) [BCY17636]
Reply | 5.76

Ask | // pKd lookup, key: ACWTDFCNNRYVVNRCA (N-terminal acetyl (Ac); Ci, Cii and Ciii cysteines covalently bound to TBMT scaffold) [BCY20264]
Reply | 8.00
